# TESTED_TARGET: T1, Abeta peptide (40-amino acid Abeta peptide, SEQ ID NO: 1), biotinylated (human, N-terminal biotin or C-terminal lysine-linked biotin, separated from the peptide by a PEG6 linker)
# T1 construct: Synthesized by Genscript; also called amyloid beta; test peptide
# T1 sequence (peptide, as listed by the source): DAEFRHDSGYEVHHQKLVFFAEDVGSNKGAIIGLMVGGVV
# EXPERIMENT: BLI (Octet HTX), biotinylated Abeta on streptavidin sensors, 1 uM VHH, 1:1 fit
# Description: Binding affinity was measured using Biolayer Interferometry (BLI) with a ForteBio Octet HTX instrument. Biotinylated antigen was loaded onto streptavidin biosensors at a concentration of 100 nM in kinetics buffer (PBS+1% BSA). […]
Please provide measured pKd for the entries that follow.
Answers are plain numbers, as −log10 of the molar value.

Each of the following entries comes with a recorded value; kindly state pKd for each.
1. vhhLib05-8 (VHH, The entry as printed includes a doubled TLVTVSS and HHHHHH; also called 13BHK) VHH: EVQLLESGGGLVQPGGSLRLSCAASGFTFSSYAMSWVRQAPGKQREWVSAISGSGGRTYYADSVKGRFTISRDNSKNTLYLQMNSLRAEDTAVYYCARHSIPVDGIVAFDHWGQGTLVTVSS
2. vhhLib05-21 (VHH, The entry as printed includes a doubled TLVTVSS and HHHHHH; also called 16BHK) VHH: EVQLLESGGGLVQPGGSLRLSCAASGFTFSNYAMSWVRQAPGKQREWVSVISGNGSSTYYADSVKGRFTISRDNSKNTLYLQMNSLRAEDTAVYYCARLVQLPWVPISAFDVWGQGTLVTVSS
3. vhhLib01-2 (VHH, The entry as printed includes HHHHHH) VHH: QVQLVESGGGLVQPGGSLRLSCAASGSIFSANHMGWYRQAPGKQRELVAAISSGGLTNYADSVKGRFTISRDNAKNTVYLQMNSLKPEDTAVYYCARHQTKIYNLHYYYFDYWGQGTLVTVSS
4. vhhLib01-49 (VHH, The entry as printed includes HHHHHH) VHH: QVQLVESGGGLVQPGGSLRLSCAASGSIFSHNTMGWYRQAPGKQRELVAAINSGGSTNYADSVKGRFTISRDNAKNTVYLQMNSLKPEDTAVYYCARYIQTYTWGYFDYWGQGTLVTVSS
5. vhhLib01-48 (VHH, The entry as printed includes HHHHHH) VHH: QVQLVESGGGLVQPGGSLRLSCAASGSIFSANIMGWYRQAPGKQRELVAAIVSGGYTNYADSVKGRFTISRDNAKNTVYLQMNSLKPEDTAVYYCARDQDAFDHVGQYFDHWGQGTLVTVSS
6. vhhLib01-86 (VHH, The entry as printed includes a doubled TLVTVSS and HHHHHH; also called vhbLib01-86) VHH: QVQLVESGGGLVQPGGSLRLSCAASGSIFSANHMGWYRQAPGKQRELVAAILSGGVTNYADSVKGRFTISRDNAKNTVYLQMNSLKPEDTAVYYCARGQVDTKYGYYYFDSWGQGTLVTVSS
7. vhhLib05-25 (VHH, The entry as printed includes a doubled TLVTVSS and HHHHHH) VHH: EVQLLESGGGLVQPGGSLRLSCAASGFTFSSYAMSWVRQAPGKQREWVSAISGSGGSTYYADSVKGRFTISRDNSKNTLYLQMNSLRAEDTAVYYCARHRQADGITYFDIWGQGTLVTVSS

## Output
1: 7.60; 2: 6.98; 3: 6.67; 4: 6.93; 5: 6.82; 6: 6.37; 7: 7.62

Each of the following entries comes with a recorded value; kindly state pKd for each.
1. vhhLib05-5 (VHH, The entry as printed includes a doubled TLVTVSS and HHHHHH) VHH: EVQLLESGGGLVQPGGSLRLSCAASGFTFSSYAMSWVRQAPGKQREWVSAISGSGGSTYYADSVKGRFTISRDNSKNTLYLQMNSLRAEDTAVYYCARLDYTDGINYFDYWGQGTLVTVSS
2. vhhLib02-53 (VHH, The entry as printed includes HHHHHH; also called 06BHK) VHH: EVQLVESGGGLVQPGGSLRLSCAASGFTFSRYLMSWYRQAPGKQRELVGAIASGGVTYYADSVKGRFTISRDNSKNTLYLQMNSLRAEDTAVYYCARGNPSERLYYYFDYWGQGTLVTVSS
3. vhhLib05-10 (VHH, The entry as printed includes a doubled TLVTVSS and HHHHHH) VHH: EVQLLESGGGLVQPGGSLRLSCAASGFTFSSYAMSWVRQAPGKQREWVSAISGSGGSTYYADSVKGRFTISRDNSKNTLYLQMNSLRAEDTAVYYCARVVKVDDIVHAFDIWGQGTLVTVSS
4. vhhLib01-34 (VHH, The entry as printed includes HHHHHH) VHH: QVQLVESGGGLVQPGGSLRLSCAASGSIFSVNRMGWYRQAPGKQRELVAAIISGGATNYADSVKGRFTISRDNAKNTVYLQMNSLKPEDTAVYYCARRPAPNGRYHSWYAFDYWGQGTLVTVSS
5. vhhLib05-28 (VHH, The entry as printed includes a doubled TLVTVSS and HHHHHH) VHH: EVQLLESGGGLVQPGGSLRLSCAAAGFTFSSYAMSWVRQAPGKQREWVSAISGSGGSTYYADSVKGRFTISRDNSKNTLYLQMNSLRAEDTAVYYCARLSHNSQGTVVYNYFDIWGQGTLVTVSS

## Output
6.72
7.37
6.75
6.44
6.94

Each of the following entries comes with a recorded value; kindly state pKd for each.
1. vhhLib01-75 (VHH, The entry as printed includes HHHHHH) VHH: QVQLVESGGGLVQPGGSLRLSCAASGSIFSSNRMGWYRQAPGKQRELVAAIFSGGHTNYADSVKGRFTISRDNAKNTVYLQMNSLKPEDTAVYYCARPVDWSGPFDIWGQGTLVTVSS
2. vhhLib02-64 (VHH, The entry as printed includes HHHHHH) VHH: EVQLVESGGGLVQPGGSLRLSCAASGFTFSGYFMSWYRQAPGKQRELVSVINSGGSTYYADSVKGRFTISRDNSKNTLYLQMNSLRAEDTAVYYCARGRVATGGGYGFVHYFDVWGQGTLVTVSS
3. vhhLib01-58 (VHH, The entry as printed includes HHHHHH) VHH: QVQLVESGGGLVQPGGSLRLSCAASGSIFSPNHMGWYRQAPGKQRELVAAIYSGGTTNYADSVKGRFTISRDNAKNTVYLQMNSLKPEDTAVYYCARRTFLRGWSGYLPWFDVWGQGTLVTVSS

## Output
[6.73, 6.68, 6.58]
